Molecular target: TrkA (histidine-tagged recombinant human TrkA, cytoplasmic domain) (Homo sapiens (Human), UniProt P04629)
Sequence (P04629 440-796): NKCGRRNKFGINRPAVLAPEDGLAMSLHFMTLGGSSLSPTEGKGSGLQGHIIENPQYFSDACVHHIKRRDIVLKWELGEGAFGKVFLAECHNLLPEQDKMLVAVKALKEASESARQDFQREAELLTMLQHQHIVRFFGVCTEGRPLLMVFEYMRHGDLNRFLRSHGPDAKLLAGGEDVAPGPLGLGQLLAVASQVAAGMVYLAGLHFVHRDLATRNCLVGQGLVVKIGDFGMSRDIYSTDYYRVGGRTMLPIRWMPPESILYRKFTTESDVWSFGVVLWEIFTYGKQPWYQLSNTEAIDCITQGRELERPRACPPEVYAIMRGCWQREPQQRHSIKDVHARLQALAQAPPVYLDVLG
Assay: TrkA ELISA Assay
Assay type: biochemical
Conditions: Table 1; ELISA, 500 μM ATP; read-out: TrkA Enzyme IC50
quantity-name: log10 of IC50 (log10 of the value in µM)

>>> measured("O=C(NOCCO)c1cnn2ccc(N3CCC[C@@H]3c3cc(F)cnc3Cl)nc12")
-1.28
>>> measured("Cn1cc(F)cc([C@H]2CCCN2c2ccn3ncc(C(=O)NCC4CC4)c3n2)c1=O")
-2.35
>>> measured("CC(NC(=O)c1cnn2ccc(N3CCCC3c3cncc(F)c3)nc12)C1CC1 (stereo not drawn)")
-2.49
>>> measured("Cc1ncc(F)cc1[C@H]1CCCN1c1ccn2ncc(C(=O)NCCO)c2n1")
-1.08
>>> measured("CC(C)(C)NC(=O)c1cnn2ccc(N3C[C@H](O)C[C@@H]3c3cccc(F)c3)nc12")
-1.32
>>> measured("CONC(=O)c1cnn2ccc(N3CCC[C@@H]3c3cc(F)ccc3F)nc12")
-3.22

====

# Lookup of reported IC50 keyed by entry
Target: TrkA (histidine-tagged recombinant human TrkA, cytoplasmic domain) (Homo sapiens (Human))
Assay: TrkA ELISA Assay
Type: biochemical
Details: Table 1; ELISA, 500 μM ATP; read-out: TrkA Enzyme IC50
quantity-name: IC50 (nM)

>>> measured("COc1ncc(F)cc1[C@H]1CCCN1c1ccn2ncc(C(=O)Nc3cc(C)n[nH]3)c2n1")
11.3
>>> measured("O=C(NOC[C@@H](O)CO)c1cnn2ccc(N3CCC[C@@H]3c3cc(F)ccc3F)nc12")
6.13
>>> measured("Cc1ncc(F)cc1[C@H]1CCCN1c1ccn2ncc(C(=O)NC(C)C)c2n1")
7.4

====

Biological target: TrkA (histidine-tagged recombinant human TrkA, cytoplasmic domain) (Homo sapiens (Human), UniProt P04629)
Assay: TrkA ELISA Assay
Assay type: biochemical
Details: Table 1; ELISA, 500 μM ATP; read-out: TrkA Enzyme IC50
pIC50: −log10 of the molar value.
Param threshold (8) applies to pIC50; output T when value >= threshold, F when value < threshold.

>>> group("O=C(NC1CC1)c1cnn2ccc(N3CCC[C@@H]3c3cc(F)cc(OCC(O)CO)c3)nc12 (some centres unmarked) [Example 208]")
"T"
>>> group("COc1ncc(F)cc1[C@H]1CCCN1c1ccn2ncc(C(=O)N3CC(O)C3)c2n1 [Example 139]")
"F"
>>> group("O=C(N[C@@H]1C2CC[C@@H](C2)[C@@H]1CO)c1cnn2ccc(N3CCC[C@@H]3c3cncc(F)c3)nc12 [Example 138]")
"F"
>>> group("COc1ncc(F)cc1[C@H]1CCCN1c1ccn2ncc(C(=O)NC[C@H](C)O)c2n1 [Example 156]")
"T"
>>> group("CC1(NC(=O)c2cnn3ccc(N4CCC[C@@H]4c4cncc(F)c4)nc23)CC1 [Example 91]")
"T"
>>> group("O=C(NCCc1c[nH]cn1)c1cnn2ccc(N3CCC[C@@H]3c3cc(F)ccc3F)nc12 [Example 25]")
"T"
>>> group("COc1ncc(F)cc1[C@H]1CCCN1c1ccn2ncc(C(=O)N3CC(C)(O)C3)c2n1 [Example 147]")
"F"
>>> group("O=C(c1cnn2ccc(N3CCC[C@@H]3c3cc(F)ccc3F)nc12)N1CC[C@@H](O)C1 [Example 19]")
"F"
>>> group("CC1(O)CN(C(=O)c2cnn3ccc(N4CCC[C@@H]4c4cc(F)ccc4F)nc23)C1 [Example 32]")
"T"
>>> group("CNC(=O)c1cnn2ccc(N3CCC[C@@H]3c3cc(F)cnc3C)nc12 [Example 186]")
"F"
>>> group("O=C(Nc1ccccn1)c1cnn2ccc(N3CCC[C@@H]3c3cc(F)ccc3F)nc12 [Example 2]")
"T"
>>> group("COc1ccc(F)cc1[C@H]1CCCN1c1ccn2ncc(C(=O)NC[C@@H](O)CO)c2n1 [Example 56]")
"T"
>>> group("CC1(NC(=O)c2cnn3ccc(N4CCC[C@@H]4c4cncc(F)c4)nc23)CCC1 [Example 102]")
"T"
>>> group("COc1ncc(F)cc1[C@H]1CCCN1c1ccn2ncc(C(=O)NC(C)(C)CF)c2n1 [Example 81]")
"T"
>>> group("O=C(N[C@H]1CC[C@H](O)CC1)c1cnn2ccc(N3CCC[C@@H]3c3cc(F)ccc3F)nc12 [Example 7]")
"T"
>>> group("CC(C)NC(=O)c1cnn2ccc(N3CCC[C@@H]3c3cncc(F)c3)nc12 [Example 93]")
"T"
>>> group("CC(C)NC(=O)c1cnn2ccc(N3[C@@H](c4cncc(F)c4)CC[C@@]3(C)CO)nc12 [Example 219]")
"F"
